Just for reference, paper PMC4267619 is where these values come from.

# Measurement Target: YT521-B YTH domain (Rattus norvegicus, UniProt Q9QY02 347-502)
# Test: ITC; 20 C; 125 uM RNA into 10 uM protein; 25 mM NaH2PO4, 25 mM NaCl, 10 mM beta-mercaptoethanol, pH 7; ITC and NMR titrations at 20 C, structure at 30 C
Readout Name: pKd
Lab note — pKd values are minus log10 of concentrations in M.

Input UGACAC (ssRNA, N6-methyladenosine at position 3) [5'-UGm6ACAC-3'] . Output pKd: 7.00
